MEASUREMENT_TARGET: Amine oxidase [flavin-containing] A (Homo sapiens)
Sequence (P21397 whole entry): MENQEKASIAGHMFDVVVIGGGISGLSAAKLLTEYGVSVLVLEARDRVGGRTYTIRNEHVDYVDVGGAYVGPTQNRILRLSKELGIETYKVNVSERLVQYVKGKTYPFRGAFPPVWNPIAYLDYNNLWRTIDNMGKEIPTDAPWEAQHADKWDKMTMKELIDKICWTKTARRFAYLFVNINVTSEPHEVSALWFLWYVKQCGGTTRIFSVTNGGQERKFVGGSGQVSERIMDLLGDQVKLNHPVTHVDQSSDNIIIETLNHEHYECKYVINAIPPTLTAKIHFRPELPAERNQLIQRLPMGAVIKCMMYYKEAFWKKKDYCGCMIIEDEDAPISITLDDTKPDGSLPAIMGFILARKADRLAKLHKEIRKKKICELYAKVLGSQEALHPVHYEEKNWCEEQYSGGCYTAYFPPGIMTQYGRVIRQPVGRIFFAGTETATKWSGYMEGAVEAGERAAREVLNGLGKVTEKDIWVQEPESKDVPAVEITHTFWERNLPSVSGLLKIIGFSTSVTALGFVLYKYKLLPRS
TEST_NAME: Inhibition of recombinant human MAO-A assessed as reduction in H2O2 production using p-tyramine as substrate preincubated for 15 mins followed by substrate addition by Amplex red reagent based fluorescence assay
RESULT_TYPE: pIC50
By convention, pIC50 is the negative base-10 log of a molar concentration.

Below: 5 molecules and their reported pIC50.
INSERT INTO assay_data (record_smiles, value_measured) VALUES
  ('CCN(CC)CCCCCCOc1ccc(/C=C2\COc3ccccc3C2=O)cc1', 4.42),
  ('CCN(CC)CCCOc1ccc(/C=C2\COc3ccccc3C2=O)cc1', 4.20),
  ('CN(C)CCOc1cccc(/C=C2\COc3ccccc3C2=O)c1', 4.42),
  ('CN(C)CCCOc1cccc(/C=C2\COc3ccccc3C2=O)c1', 4.03),
  ('CCN(CC)CCOc1cccc(/C=C2\COc3ccccc3C2=O)c1', 4.10);

# input for lookup
**Query** Give its pIC50 value. Item: `CCN(CC)CCCOc1cccc(/C=C2\COc3ccccc3C2=O)c1`
**Result** 4.19

###

MEASUREMENT_TARGET: Acetylcholinesterase (Electrophorus electricus)
Sequence (O42275 whole entry): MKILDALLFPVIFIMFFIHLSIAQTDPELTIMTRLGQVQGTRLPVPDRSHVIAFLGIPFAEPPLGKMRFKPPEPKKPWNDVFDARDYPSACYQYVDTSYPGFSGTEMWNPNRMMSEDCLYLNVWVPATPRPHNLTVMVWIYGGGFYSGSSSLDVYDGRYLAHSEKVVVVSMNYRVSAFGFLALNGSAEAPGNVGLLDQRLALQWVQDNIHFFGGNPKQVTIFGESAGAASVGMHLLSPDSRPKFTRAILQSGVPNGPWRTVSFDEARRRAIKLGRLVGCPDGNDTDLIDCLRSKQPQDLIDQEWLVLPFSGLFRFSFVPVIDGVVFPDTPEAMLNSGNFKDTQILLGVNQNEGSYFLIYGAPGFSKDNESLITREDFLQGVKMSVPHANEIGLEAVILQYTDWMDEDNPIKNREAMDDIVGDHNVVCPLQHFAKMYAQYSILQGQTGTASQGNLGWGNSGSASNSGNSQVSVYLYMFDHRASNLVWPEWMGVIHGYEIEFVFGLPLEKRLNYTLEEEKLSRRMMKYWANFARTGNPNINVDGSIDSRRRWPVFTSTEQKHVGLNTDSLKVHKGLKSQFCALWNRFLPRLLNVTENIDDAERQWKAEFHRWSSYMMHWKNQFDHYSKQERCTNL
pIC50: −log10 of the molar value.
Kind request: treat 5 as inclusive, so pIC50 at 5 or higher is true (1), anything lower is false (0).

INSERT INTO measurements (record_smiles, group_label) VALUES
  ('CCN(CC)CCCCCCOc1ccc(/C=C2\COc3ccccc3C2=O)cc1', 'true (1)'),
  ('O=C1/C(=C/c2ccc(O)cc2)COc2ccccc21', 'false (0)'),
  ('O=C1/C(=C/c2ccc(OCCCN3CCN(Cc4ccccc4)CC3)cc2)COc2ccccc21', 'true (1)'),
  ('CCN(CC)CCOc1ccccc1/C=C1\COc2ccccc2C1=O', 'false (0)'),
  ('CN(C)CCOc1cccc(/C=C2\COc3ccccc3C2=O)c1', 'true (1)'),
  ('CN(CCOc1ccc(/C=C2\COc3ccccc3C2=O)cc1)Cc1ccccc1', 'false (0)'),
  ('CN(CCCOc1ccc(/C=C2\COc3ccccc3C2=O)cc1)Cc1ccccc1', 'false (0)'),
  ('CCN(CCCCCCOc1ccc(/C=C2\COc3ccccc3C2=O)cc1)Cc1ccccc1', 'false (0)'),
  ('CN1CCN(CCCCCCOc2ccc(/C=C3\COc4ccccc4C3=O)cc2)CC1', 'false (0)'),
  ('CCN(CC)CCCOc1ccc(/C=C2\COc3ccccc3C2=O)cc1', 'true (1)');

**Query** Does the reported pIC50 for `O=C1/C(=C/c2ccc(OCCN3CCN(Cc4ccccc4)CC3)cc2)COc2ccccc21` fall at or above the 5 mark?
**Result** false (0)

**Query** Same read-out for `CN(C)CCOc1ccccc1/C=C1\COc2ccccc2C1=O` ?
**Result** false (0)
